Molecular target: monoamine oxidase A (MAO-A) (Homo sapiens, UniProt P21397)
Construct: recombinant MAO-A
Sequence (P21397 whole entry): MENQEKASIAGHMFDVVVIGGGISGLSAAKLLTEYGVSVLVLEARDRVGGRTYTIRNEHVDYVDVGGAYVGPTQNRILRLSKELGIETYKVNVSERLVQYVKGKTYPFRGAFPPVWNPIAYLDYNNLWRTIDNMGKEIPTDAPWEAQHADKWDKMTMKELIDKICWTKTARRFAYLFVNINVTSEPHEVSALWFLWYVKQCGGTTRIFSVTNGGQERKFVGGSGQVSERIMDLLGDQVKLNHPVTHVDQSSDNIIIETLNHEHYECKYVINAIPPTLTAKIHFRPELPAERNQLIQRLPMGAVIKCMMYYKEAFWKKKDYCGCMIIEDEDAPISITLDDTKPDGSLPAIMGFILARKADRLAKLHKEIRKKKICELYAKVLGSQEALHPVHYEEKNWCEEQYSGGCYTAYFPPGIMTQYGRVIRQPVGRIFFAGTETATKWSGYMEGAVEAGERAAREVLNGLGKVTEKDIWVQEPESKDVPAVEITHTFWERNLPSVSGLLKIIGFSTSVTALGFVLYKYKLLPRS
Assay: fluorometric Ampliflu Red/HRP assay with tyramine; Lineweaver-Burk kinetics (IC50 also […])
measure.name: Ki (nM)
Answer with a number only, understood to be in nM.

Lookup: Item S=C(NN=Cc1ccc(Sc2ccc(Cl)cc2)cc1)NC1CCCCC1 has what recorded Ki?
Found: 142
